Biological target: HIV-1LAI envelope gp120 (Human immunodeficiency virus type 1 group M subtype B, UniProt P03377)
Type: binding
Conditions: STRL33 18-mer scan; background subtracted; second of two count columns
Entries whose radioactive counts recorded in twenty minutes is below 900 counts take yes (1); entries at or above 900 counts take no (0).

[[record]]
residue_string = "QAKRMTWGKVTSLLIWVI"
class_assignment = "yes (1)"

[[record]]
residue_string = "VCYSVIIKTLLHAGGFQK [STRL33 segment 209-226]"
class_assignment = "no (0)"

[[record]]
residue_string = "VFVCGLVGNSLVLVISIF [STRL33 segment 41-58]"
class_assignment = "yes (1)"

[[record]]
residue_string = "KATKAYNQQAKRMTWGKV"
class_assignment = "yes (1)"

[[record]]
residue_string = "LMKFIRSTHWEYYAMTSF [STRL33 segment 249-266]"
class_assignment = "no (0)"

[[record]]
residue_string = "MYLVVFVCGLVGNSLVLV [STRL33 segment 37-54]"
class_assignment = "yes (1)"

[[record]]
residue_string = "LKFRKNFWKLVKDIGCLP [STRL33 segment 293-310]"
class_assignment = "no (0)"

[[record]]
residue_string = "YAMTSFHYTIMVTEAIAY [STRL33 segment 261-278]"
class_assignment = "no (0)"

[[record]]
residue_string = "LVSLPQIIYGNVFNLDKL"
class_assignment = "yes (1)"

[[record]]
residue_string = "DYHEDYGFSSFNDSSQEE [STRL33 segment 5-22]"
class_assignment = "no (0)"

[[record]]
residue_string = "SSFNDSSQEEHQAFLQFS [STRL33 segment 13-30]"
class_assignment = "no (0)"

[[record]]
residue_string = "LTMIVCYSVIIKTLLHAG [STRL33 segment 205-222]"
class_assignment = "no (0)"


* * *

Target: HIV-1LAI envelope gp120 (Human immunodeficiency virus type 1 group M subtype B, UniProt P03377)
Format: binding
Settings: CXCR4 18-mer scan; background subtracted, empty control 0
This listing pairs sequences with measured radioactive counts recorded in twenty minutes.
quantity_measured: radioactive counts recorded in twenty minutes (counts)

[[record]]
residue_string = "IIISKLSHSKGHQKRKAL"
observed_result = 157

[[record]]
residue_string = "FKTSAQHALTSVSRGSSL"
observed_result = 173

[[record]]
residue_string = "GLVILVMGYQKKLRSMTD [CXCR4 segment 57-74]"
observed_result = 157

[[record]]
residue_string = "GNFLCKAVHVIYTVNLYS"
observed_result = 231

[[record]]
residue_string = "LVMGYQKKLRSMTDKYRL [CXCR4 segment 61-78]"
observed_result = 105

[[record]]
residue_string = "RLHLSVADLLFVITLPFW [CXCR4 segment 77-94]"
observed_result = 136

[[record]]
residue_string = "YSSVLILAFISLDRYLAI"
observed_result = 157

[[record]]
residue_string = "AQNALTSVSRGSSLKILS [CXCR4 segment 313-330]"
observed_result = 147

[[record]]
residue_string = "MVGLILPGIVILSCYCII [CXCR4 segment 205-222]"
observed_result = 167

[[record]]
residue_string = "YVGVWIPALLLTIPDFIF"
observed_result = 124

[[record]]
residue_string = "LNPILYAFLGAKFKTSAQ [CXCR4 segment 297-314]"
observed_result = 274

[[record]]
residue_string = "IVILSCYCIIISKLSHSK"
observed_result = 277

[[record]]
residue_string = "ITLPFWAVDAVANWYFGN [CXCR4 segment 89-106]"
observed_result = 130

[[record]]
residue_string = "FYPNDLWVVVFQFQHIMV [CXCR4 segment 189-206]"
observed_result = 416

[[record]]
residue_string = "NWYFGNFLCKAVHVIYTV"
observed_result = 96

[[record]]
residue_string = "LLLTIPDFIFANVSEADD"
observed_result = 1006

[[record]]
residue_string = "VSEADDRYICDRFYPNDL [CXCR4 segment 177-194]"
observed_result = 157

[[record]]
residue_string = "ALKTTVILILAFFACWLP [CXCR4 segment 237-254]"
observed_result = 261

[[record]]
residue_string = "DAVANWYFGNFLCKAVHV"
observed_result = 112

[[record]]
residue_string = "SITEALAFFHCCLNPILY [CXCR4 segment 285-302]"
observed_result = 188

[[record]]
residue_string = "QKRKALKTTVILILAFFA [CXCR4 segment 233-250]"
observed_result = 283

[[record]]
residue_string = "LLFVITLPFWAVDAVANW"
observed_result = 63

[[record]]
residue_string = "DLWVVVFQFQHIMVGLIL [CXCR4 segment 193-210]"
observed_result = 422

[[record]]
residue_string = "IFANVSEADDRYICDRFY"
observed_result = 267

[[record]]
residue_string = "NKIFLPTIYSIIFLTGIV [CXCR4 segment 37-54]"
observed_result = 138

[[record]]
residue_string = "LSKGKRGGHSSVSTESES"
observed_result = 185

[[record]]
residue_string = "GCEFENTVHKWISITEAL [CXCR4 segment 273-290]"
observed_result = 264

[[record]]
residue_string = "TVNLYSSVLILAFISLDR"
observed_result = 242

[[record]]
residue_string = "FREENANFNKIFLPTIYS [CXCR4 segment 29-46]"
observed_result = 51

[[record]]
residue_string = "HVIYTVNLYSSVLILAFI [CXCR4 segment 113-130]"
observed_result = 118

[[record]]
residue_string = "LPYYIGISIDSFILLEII"
observed_result = 439

[[record]]
residue_string = "FISLDRYLAIVHATNSQR"
observed_result = 91

[[record]]
residue_string = "LPTIYSIIFLTGIVGNGL [CXCR4 segment 41-58]"
observed_result = 118

[[record]]
residue_string = "LILAFISLDRYLAIVHAT"
observed_result = 107

[[record]]
residue_string = "ATNSQRPRKLLAEKVVYV"
observed_result = 78

[[record]]
residue_string = "FQHIMVGLILPGIVILSC"
observed_result = 170

[[record]]
residue_string = "EKVVYVGVWIPALLLTIP [CXCR4 segment 153-170]"
observed_result = 147

[[record]]
residue_string = "ILLEIIKQGCEFENTVHK [CXCR4 segment 265-282]"
observed_result = 117

[[record]]
residue_string = "FACWLPYYIGISIDSFIL [CXCR4 segment 249-266]"
observed_result = 202

[[record]]
residue_string = "IVGNGLVILVMGYQKKLR [CXCR4 segment 53-70]"
observed_result = 238

[[record]]
residue_string = "KLLAEKVVYVGVWIPALL"
observed_result = 89

[[record]]
residue_string = "DDRYICDRFYPNDLWVVV"
observed_result = 125

[[record]]
residue_string = "CKAVHVIYTVNLYSSVLI"
observed_result = 243

[[record]]
residue_string = "HSSVSTESESSSFHSS"
observed_result = 103

[[record]]
residue_string = "ALAFFHCCLNPILYAFLG [CXCR4 segment 289-306]"
observed_result = 181

[[record]]
residue_string = "FLTGIVGNGLVILVMGYQ [CXCR4 segment 49-66]"
observed_result = 246

[[record]]
residue_string = "ILAFFACWLPYYIGISID [CXCR4 segment 245-262]"
observed_result = 184

[[record]]
residue_string = "FHCCLNPILYAFLGAKFK [CXCR4 segment 293-310]"
observed_result = 123

[[record]]
residue_string = "LGAKFKTSAQHALTSVSR"
observed_result = 200

[[record]]
residue_string = "DRYLAIVHATNSQRPRKL"
observed_result = 168

[[record]]
residue_string = "IGISIDSFILLEIIKQGC [CXCR4 segment 257-274]"
observed_result = 734

[[record]]
residue_string = "HKWISITEALAFFHCCLN [CXCR4 segment 281-298]"
observed_result = 163

[[record]]
residue_string = "TVILILAFFACWLPYYIG"
observed_result = 323

[[record]]
residue_string = "SRGSSLKILSKGKRGGHS [CXCR4 segment 321-338]"
observed_result = 169

[[record]]
residue_string = "FWAVDAVANWYFGNFLCK [CXCR4 segment 93-110]"
observed_result = 66


* * *

Biological target: HIV-1LAI envelope gp120 (Human immunodeficiency virus type 1 group M subtype B)
Assay type: binding
Details: Panel C, 15-mers and 18-mers of CD4; empty control 556
Reported COUNTS of radiolabeled gp120 retained values follow for various sequences
quantity_measured: COUNTS of radiolabeled gp120 retained

[[record]]
residue_string = "WTCTVLQNQKKVEFKIDI"
observed_result = "588 counts"

[[record]]
residue_string = "LAFQKASSIVYKKEGEQV"
observed_result = "665 counts"

[[record]]
residue_string = "CTVLQNQKKVEFKID"
observed_result = "608 counts"

[[record]]
residue_string = "KVEFKIDIVVLAFQKASS"
observed_result = "1011 counts"

[[record]]
residue_string = "GEQVEFSFPLAFTVE"
observed_result = "4656 counts"

[[record]]
residue_string = "FKIDIVVLAFQKASS"
observed_result = "1001 counts"

[[record]]
residue_string = "VYKKEGEQVEFSFPLAFT"
observed_result = "4307 counts"

[[record]]
residue_string = "KKVEFKIDIVVLAFQ"
observed_result = "951 counts"

[[record]]
residue_string = "EFKIDIVVLAFQKAS"
observed_result = "1188 counts"

[[record]]
residue_string = "KASSIVYKKEGEQVEFSF"
observed_result = "536 counts"

[[record]]
residue_string = "IVVLAFQKASSIVYK"
observed_result = "783 counts"

[[record]]
residue_string = "DIVVLAFQKASSIVYKKE"
observed_result = "660 counts"

[[record]]
residue_string = "FSFPLAFTVEKLTGSGEL"
observed_result = "613 counts"

[[record]]
residue_string = "QNQKKVEFKIDIVVL"
observed_result = "636 counts"

[[record]]
residue_string = "EQVEFSFPLAFTVEKLTG"
observed_result = "798 counts"

[[record]]
residue_string = "VEFKIDIVVLAFQKA"
observed_result = "1005 counts"

[[record]]
residue_string = "KEGEQVEFSFPLAFTVEK"
observed_result = "3117 counts"

[[record]]
residue_string = "IDIVVLAFQKASSIV"
observed_result = "865 counts"

[[record]]
residue_string = "KVEFKIDIVVLAFQK"
observed_result = "1051 counts"

[[record]]
residue_string = "KKVEFKIDIVVLAFQKAS"
observed_result = "912 counts"

[[record]]
residue_string = "EFSFPLAFTVEKLTG"
observed_result = "920 counts"

[[record]]
residue_string = "IDIVVLAFQKASSIVYKK"
observed_result = "711 counts"


Numbers sourced from patent US20030068615A1.
